Source: patent US10968193B2

Molecular target: human GPR40 (Homo sapiens, UniProt O14842)
Construct: expressed in transfected cells; host or cells: HEK cells stably expressing the aequorin reporter
Sequence (O14842 whole entry): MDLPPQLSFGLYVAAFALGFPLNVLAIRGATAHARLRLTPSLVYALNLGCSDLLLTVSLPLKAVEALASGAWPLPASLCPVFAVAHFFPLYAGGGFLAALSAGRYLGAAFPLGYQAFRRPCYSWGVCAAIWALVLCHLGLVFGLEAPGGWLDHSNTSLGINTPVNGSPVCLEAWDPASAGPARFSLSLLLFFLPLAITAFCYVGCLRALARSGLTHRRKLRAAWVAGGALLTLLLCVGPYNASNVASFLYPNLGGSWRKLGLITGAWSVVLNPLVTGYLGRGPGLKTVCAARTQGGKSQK
Test: Inositol Phosphate Turnover (IP1) Assay 3
Assay type: cell-based
Details: HEK cells stably expressing human GPR40
metric name: EC50 (nM)

| compound | unit symbol | EC50 |
| --- | --- | --- |
| CCC1CCCN1Cc1cc(C2CCc3ccc([C@H](C4CC4)[C@H](C)C(=O)O)cc3O2)ccc1-c1cc(OC)ncc1F (single isomer, unassigned) [Example 267b] | nM | 0.1 |

1. CCN(Cc1cc(-c2cc(OC)ncc2F)ccc1C1CCc2ccc([C@H](C3CC3)[C@H](C)C(=O)O)cc2O1)C(C)C (mixture of isomers) [Example 124]
2. CCC1CCCCN1Cc1cc(C2CCc3ccc([C@H](C4CC4)[C@H](C)C(=O)O)cc3O2)ccc1-c1cc(OC)ncc1F (single isomer, unassigned) [Example 273a]
Data request: // pick larger EC50 from pair: 1 vs 2 Return value: the label identifying the chosen record.
Data returned: 1
(1: 0.3 nM, 2: 0.08 nM)
